EC50 by entry:
target: human D2R/β-arrestin (Homo sapiens (Human), UniProt P14416); test: Gi/cAMP agonist assay (Lance Ultra cAMP, Forskolin); assay type: cell-based; conditions: CHO-K1 cell line expressing human D2R/β-arrestin
Sequence (P14416 whole entry): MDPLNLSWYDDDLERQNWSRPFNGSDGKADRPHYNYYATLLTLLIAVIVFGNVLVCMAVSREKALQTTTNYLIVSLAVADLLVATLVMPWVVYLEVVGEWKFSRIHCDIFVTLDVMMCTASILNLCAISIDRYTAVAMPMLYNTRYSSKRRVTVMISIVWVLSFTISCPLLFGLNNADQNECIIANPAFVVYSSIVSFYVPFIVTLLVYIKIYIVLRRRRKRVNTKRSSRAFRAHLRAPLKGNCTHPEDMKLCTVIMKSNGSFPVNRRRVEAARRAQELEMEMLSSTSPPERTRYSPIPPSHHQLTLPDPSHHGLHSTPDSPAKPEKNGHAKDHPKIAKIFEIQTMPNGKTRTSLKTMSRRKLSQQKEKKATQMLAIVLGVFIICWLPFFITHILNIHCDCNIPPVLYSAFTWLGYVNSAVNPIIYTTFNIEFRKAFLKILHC

// known answers, use as guide
O=C(NC(c1ccc(Cl)cc1)c1ccccn1)C1CCN(CCOc2cccc(F)c2)CC1 (stereo not drawn) [Compound 4]    < 100 nM
O=C(NC(c1ccc(Cl)cc1)c1ccccn1)C1CCN(CCn2ccc(=O)cc2)CC1 (single isomer, unassigned) [Compound 11b]    > 30000 nM
O=C(NC(c1cccnc1)c1ccccn1)C1CCN(CCOc2ccccc2)CC1 (stereo not drawn)    100 to 1000 nM
O=C(NC(c1ccc(Cl)cc1)c1ccccc1F)C1CCN(CCOc2ccccc2F)CC1 (stereo not drawn) [Compound 96]    100 to 1000 nM
COc1cccc(C(NC(=O)C2CCN(CCOc3ccc4ncsc4c3)CC2)c2ccccn2)c1 (stereo not drawn)    > 30000 nM
Clc1ccc(C(c2ccccn2)N2CCC3(CCN(CCOc4ccccc4)CC3)C2)cc1 (single isomer, unassigned) [Compound 105b]    100 to 1000 nM

Ask: # return EC50 of CC1(C(=O)NC(c2ccc(F)cc2)c2ccccn2)CCN(CCOc2ccccc2C(F)(F)F)CC1 (stereo not drawn) [Compound 70] (system: human D2R/β-arrestin (Homo sapiens (Human), UniProt P14416))
Reply: 100 to 1000 nM

Ask: Please report the measured EC50 for CC(C)N(CC1CCN(CCOc2ccccc2F)CC1)C(c1ccc(Cl)cc1)c1ccccn1 (single isomer, unassigned) [Compound 133b] tested on human D2R/β-arrestin (Homo sapiens (Human), UniProt P14416).
Reply: < 100 nM

Ask: Would you please give the reported EC50 of CC1(C(=O)NC(c2ccc(Cl)cc2)c2ccccn2)CCN(CCOc2ccccc2)CC1 (single isomer, unassigned) [Compound 144b] with human D2R/β-arrestin (Homo sapiens (Human), UniProt P14416)?
Reply: < 100 nM

Ask: Report the value of EC50 obtained on human D2R/β-arrestin (Homo sapiens (Human), UniProt P14416) for O=C(NC(c1ccc(Cl)cc1)c1ccccn1)C1CCN(CCOc2cc(F)ccc2F)CC1 (single isomer, unassigned) [Compound 14a] .
Reply: < 100 nM

Ask: System human D2R/β-arrestin (Homo sapiens (Human), UniProt P14416). Read-out EC50. Item O=C(NC(c1ccc2c(c1)OCO2)c1ccccn1)C1CCN(CCOc2ccccc2F)CC1 (stereo not drawn) [Compound 95] . Report value.
Reply: 100 to 1000 nM

Ask: // fetch EC50 for Oc1c(CN2CCN(c3ccccn3)CC2)cc(Cl)c2cccnc12 [MLS1547, reference compound] ; system: human D2R/β-arrestin (Homo sapiens (Human), UniProt P14416)
Reply: < 100 nM

Ask: Give measured EC50 for O=C(NC(c1ccc(F)cc1)c1ccccn1)C1CCN(CC2Cc3ccccc3C2)CC1 (stereo not drawn) (human D2R/β-arrestin (Homo sapiens (Human), UniProt P14416)).
Reply: > 30000 nM

Ask: Give measured EC50 for O=C(NC(c1ccccc1)c1ccc(F)cc1)C1CCN(CCOc2ccccc2)CC1 (single isomer, unassigned) [Compound 45a] (human D2R/β-arrestin (Homo sapiens (Human), UniProt P14416)).
Reply: > 30000 nM

Ask: Report value only: EC50, human D2R/β-arrestin (Homo sapiens (Human), UniProt P14416), O=C(NC(c1ccc(Cl)cc1)c1ccccc1F)C1CCN(CCOc2ccccc2)CC1 (single isomer, unassigned) [Compound 40b]
Reply: 1000 to 10000 nM

---

Examples of compounds with documented pKi follow.
target: D2 (Homo sapiens (Human), UniProt P14416); assay: D2 radioligand binding assay
Sequence (P14416 whole entry): as above
pKi: −log10 of the molar value.

# count of solved cases: 2
O=C(NC(c1ccc(Cl)cc1)c1ccccn1)C1CCN(CCOc2ccccc2)CC1 (stereo not shown)    6.00 to 7.00
O=C(NC(c1ccc(Cl)cc1)c1ccccn1)C1CCN(CCOc2ccccc2C(F)(F)F)CC1 (stereo not shown)    6.00 to 7.00

Ask: Provide measured pKi value, entry: CN(CC1CCN(CCOc2ccccc2)CC1)C(c1ccc(Cl)cc1)c1ccccn1 (stereo not shown) [Compound 79]
Reply: 6.00 to 7.00

Ask: Return reported pKi. Input compound: O=C(NC(c1ccc2c(c1)OCO2)c1ccccn1)C1CCN(CCOc2ccccc2F)CC1 (stereo not shown)
Reply: 6.00 to 7.00

---

As shown below, each of these molecules has a reported IC50 value.
biological target: human D2R/β-arrestin (Homo sapiens (Human)); details: read-out: cAMP Antagonist

Ask: Could you please provide reported IC50 for O=C(NC(c1ccc(Cl)cc1)c1ccccn1)C1CCN(CCOc2ccc3cccnc3c2)CC1 (single isomer, unassigned) [Compound 16a] ? Thanks!
Reply: > 30 µM

Ask: // Input: O=C(NC(c1ccc(F)cc1)c1ccccn1)C1CCN(CCOc2ccccc2F)CC1 (single isomer, unassigned) [Compound 54b] . Output its IC50 only.
Reply: > 30 µM

Ask: Read the entry O=C(NC(c1ccc(Cl)cc1)c1ccccn1)C1CCN(CCOc2ccccc2F)CC1 (single isomer, unassigned) [Compound 3a] and write its reported IC50.
Reply: 0.1 to 1 µM

---

assay: Microsomal stability, mouse
observed property: Microsomal Stability: % remaining after 60 minutes

O=C(NC(c1ccc(Cl)cc1)c1ccc(F)cn1)C1CCN(CCOc2ccccc2F)CC1 (centres unmarked)    m22%
O=C(NC(c1ccc(Cl)cc1)c1ccccc1F)C1CCN(CCOc2ccccc2)CC1 (centres unmarked)    50%
CC(C)N(CC1CCN(CCOc2ccc(F)cc2)CC1)C(c1ccc(Cl)cc1)c1ccccn1 (centres unmarked)    m2%
O=C(NC(c1ccc(F)cc1)c1ccccn1)C1CCN(CCOc2ccccc2Cl)CC1 (centres unmarked)    3%

Ask: Find the measured Microsomal Stability: % remaining after 60 minutes of O=C(NC(c1ccc(Cl)cc1)c1ccccn1)C1CCN(CCOc2ccccc2C(F)(F)F)CC1 (single isomer, unassigned) [Compound 6a] and report it.
Reply: m31%

---

experiment: Plasma protein binding, human; format: in vitro ADME; conditions: plasma, read-out: Plasma Protein Binding % bound
Entries and their fraction unbound values follow.

O=C(NC(c1ccc(Cl)cc1)c1cccnc1)C1CCN(CCOc2ccccc2)CC1 (stereo not drawn)    0.053

Ask: Could you please provide reported fraction unbound for O=C(NC(c1ccncc1)c1ccc(Cl)cc1)C1CCN(CCOc2ccccc2)CC1 (stereo not drawn) ? Thanks!
Reply: 0.064

Ask: Look up and state reported fraction unbound for O=C(NC(c1ccc(Cl)cc1)c1ccccn1)C1CCN(CCOc2ccc(F)cc2F)CC1 (stereo not drawn)
Reply: 0.008

Ask: Give a short answer stating reported fraction unbound for Clc1ccc(C(NCC2CCN(CCOc3ccccc3)CC2)c2ccccn2)cc1 (stereo not drawn) .
Reply: 0.014

Ask: Check the records and state fraction unbound for COc1cccc(C(NC(=O)C2CCN(CCOc3ccccc3)CC2)c2ccccc2)c1 (stereo not drawn)
Reply: 0.022

Ask: Tell us which fraction unbound value is on record for O=C(NC(c1ccc(Cl)cc1)c1ccccn1)C1CCN(CCOc2ccccc2)CC1 (stereo not drawn)
Reply: 0.037

Ask: Please give the documented fraction unbound of O=C(NC(c1ccc(Cl)cc1)c1ccccn1)C1CCN(CCOc2ccccc2Cl)CC1 (stereo not drawn)
Reply: 0.007

Ask: Indicate its recorded fraction unbound; the compound in question is O=C(NC(c1ccc(Cl)cc1)c1ccccn1)C1CCN(CCCc2ccccc2)CC1 (stereo not drawn)
Reply: 0.046

Ask: Annotate the compound O=C(NC(c1ccccn1)C1CCCCC1)C1CCN(CCOc2ccccc2)CC1 (stereo not drawn) with its measured fraction unbound.
Reply: 0.047

---

target: human D2R/β-arrestin (Homo sapiens (Human), UniProt P14416); test: cell-based; conditions: β-arrestin Antagonist, CHO-K1 cell line expressing human D2R/β-arrestin; quinpirole used as agonist
observed property: IC50

Examples with answers:
O=C(NC(c1ccc(Cl)cc1)c1ccccn1)C1CCN(CCOc2ccc(F)cc2F)CC1 (single isomer, unassigned) [Compound 115a]    1000 to 10000 nM
O=C(NC(c1ccc(Cl)cc1)c1ccccn1)C1CCN(CCOc2ccccc2C(F)(F)F)CC1 (stereo not shown) [Compound 6]    < 100 nM
O=C(NC(c1ccc(Cl)cc1)c1ccccn1)C1CCN(CCOc2ccc(Cl)cc2)CC1 (stereo not shown) [Compound 2]    1000 to 10000 nM
O=C(NC(c1ccncc1)c1ccc(Cl)cc1)C1CCN(CCOc2ccccc2)CC1 (stereo not shown) [Compound 112]    1000 to 10000 nM
CC(C1CCN(CCOc2ccccc2)CC1)N(C)C(c1ccc(Cl)cc1)c1ccccn1 (single isomer, unassigned) [Compound 97b]    100 to 1000 nM

Ask: For the compound Clc1ccc(C(OCC2CCN(CCOc3ccccc3)CC2)c2ccccn2)cc1 (stereo not shown) [Compound 99] , give its measured IC50 value.
Reply: 1000 to 10000 nM

Ask: Please give measured IC50 of the following entry: Clc1cccc(C2CCN(CCCOc3ccc4scnc4c3)CC2)c1Cl [UNC9994, reference compound]
Reply: 100 to 1000 nM

Ask: Identify IC50 associated with the compound O=C(NC(c1ccc(Cl)cc1)c1ccccc1F)C1CCN(CCOc2cc(F)ccc2F)CC1 (stereo not shown) [Compound 123]
Reply: 100 to 1000 nM

Ask: Give recorded IC50. O=C(NC(c1ccc(Cl)cc1)c1ccccn1)C1CCN(CCOc2cccc(C(F)(F)F)c2)CC1 (stereo not shown) [Compound 7]
Reply: 100 to 1000 nM

Ask: Provide measured IC50 value, entry: O=C1CCc2ccc(OCCCCN3CCCN(c4cccc(Cl)c4Cl)CC3)nc2N1 [UNC9975, reference compound]
Reply: 100 to 1000 nM

Ask: Quickly give me recorded IC50 for COc1cccc(C(c2ccccn2)N(C)CC2CCN(CCOc3ccccc3)CC2)c1 (single isomer, unassigned) [Compound 76a]
Reply: 1000 to 10000 nM

Ask: Specify IC50 for O=C(NC(c1ccc(Cl)cc1)c1ccc(F)cn1)C1CCN(CCOc2ccccc2)CC1 (stereo not shown) [Compound 116] and stop.
Reply: 1000 to 10000 nM

Ask: Note down IC50 recorded for O=C(NC(c1ccc(Cl)cc1)c1ccccn1)C1CCN(CCCc2ccccc2)CC1 (stereo not shown) [Compound 18]
Reply: 1000 to 10000 nM

Ask: Please give the documented IC50 of O=C(NC(c1ccc(Cl)cc1)c1cccnc1)C1CCN(CCOc2ccccc2)CC1 (stereo not shown) [Compound 111]
Reply: 100 to 1000 nM

Ask: Please report the measured IC50 for O=C(NC(c1ccc2c(c1)OC(F)(F)O2)c1ccccn1)C1CCN(CCOc2ccccc2F)CC1 (single isomer, unassigned) [Compound 94a]
Reply: 100 to 1000 nM

Ask: Complete the entry with IC50 for O=C(NC(c1ccccn1)C1CCCCC1)C1CCN(CCOc2ccccc2)CC1 (stereo not shown) [Compound 37]
Reply: 100 to 1000 nM
